# reported log10(Ki); entries follow
# MEASUREMENT_TARGET: CB1 receptor (Rattus norvegicus, UniProt P20272)
# Construct: from tissue; host or cells: rat whole brain, P2 membranes
# Sequence (P20272 whole entry): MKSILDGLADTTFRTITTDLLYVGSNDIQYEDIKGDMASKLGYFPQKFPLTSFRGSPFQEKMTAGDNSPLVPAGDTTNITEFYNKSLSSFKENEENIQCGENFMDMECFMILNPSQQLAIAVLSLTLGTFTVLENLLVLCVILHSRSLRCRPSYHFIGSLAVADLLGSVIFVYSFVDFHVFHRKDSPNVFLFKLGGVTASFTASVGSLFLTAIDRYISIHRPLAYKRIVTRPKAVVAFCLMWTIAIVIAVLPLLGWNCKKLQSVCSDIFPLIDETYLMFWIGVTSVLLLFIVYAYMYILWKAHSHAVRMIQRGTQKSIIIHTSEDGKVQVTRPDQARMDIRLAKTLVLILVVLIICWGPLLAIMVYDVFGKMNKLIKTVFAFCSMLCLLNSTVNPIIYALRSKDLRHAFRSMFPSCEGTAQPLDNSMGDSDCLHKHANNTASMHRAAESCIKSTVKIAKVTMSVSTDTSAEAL
# TEST_SUMMARY: CB1 assay: displacement of [3H]CP-55,940 from rat brain membrane preparation
# Assay type: binding
# CONDITION_CONTEXT: rat brain membranes; read-out: Ki at CB1 receptor
PROPERTY_NAME: log10(Ki) (log10 of the value in nM)

# COMPOUND, MEASUREMENT_TARGET, log10(Ki)
measured = [
    ("CCCCCn1c(C)c(C(=O)c2cccc3ccc(OC)cc23)c2ccccc21", "CB1 receptor (Rattus norvegicus, UniProt P20272)", 1.65),
    ("CC(C)(C)c1ccc2c(c1)OC(C)(C)C1CC=C(CO)CC21 (centres unmarked)", "CB1 receptor (Rattus norvegicus, UniProt P20272)", 2.43),
    ("CCCCCn1c(C)c(C(=O)c2ccc(OCC)c3ccccc23)c2ccccc21", "CB1 receptor (Rattus norvegicus, UniProt P20272)", 1.46),
    ("CCCn1c(C)c(C(=O)c2cccc3ccc(CC)cc23)c2ccccc21", "CB1 receptor (Rattus norvegicus, UniProt P20272)", 3.13),
    ("CCCCc1ccc(C(=O)c2cn(CCC)c3ccccc23)c2ccccc12", "CB1 receptor (Rattus norvegicus, UniProt P20272)", 2.53),
]
